target: SMYD3 (Homo sapiens (Human)); assay: SMYD3 biochemical assay (SPA, 3H-SAM methylation of MEKK2 protein substrate); conditions: read-out: SMYD3 Biochem IC50 (μM)*
Where a name gives a salt, the structure may show the parent alone.
Label satisfied when IC50 is strictly below 4 µM; otherwise label not satisfied.

Solved entries (count: 5):
Is 4 µM strictly greater than the compound's reported IC50? compound: C[C@H]1CC(NC(=O)c2cc(C3CC3)on2)CCN1C(=O)CC1(CN)CCC1 (stereo partly shown) [compound 204]
not satisfied

Please indicate whether the reported IC50 of CCOC(=O)CS(=O)(=O)N1CC[C@@H](NC(=O)c2cc(C3CC3)on2)C[C@H]1C [compound 252] is strictly below 4 µM.
not satisfied

Decide: IC50 of CC(=O)Nc1ccc(S(=O)(=O)N2[C@@H]3CC[C@H]2C[C@H](NC(=O)c2cc(C4CC4)on2)C3)cc1 [compound 430] strictly below 4 µM?
satisfied

Strictly below 4 µM in IC50? C[C@@H]1CC(NC(=O)c2cc(C3CC3)on2)CCN1C(=O)CN1CCNCC1 (stereo partly shown) [compound 92]
satisfied

Hello, is IC50 of the following compound strictly smaller than 4 µM? NCCCS(=O)(=O)N1CCC(NC(=O)c2cc(C3CC3)on2)CC12CCC2 (stereo not shown) [compound 445]
satisfied

Further cases:
Confirm or reject: IC50 of NCCCS(=O)(=O)N1C2CCCC1CC(NC(=O)c1cc(C3CC3)on1)C2 (stereo not shown) [Cpd. No. 181, hydrochloride salt] lies strictly below 4 µM
satisfied

* * *

List of pIC50 values.
biological target: SMYD3 (Homo sapiens (Human), UniProt Q9H7B4); assay: SMYD3 biochemical assay (SPA, 3H-SAM methylation of MEKK2 protein substrate); details: read-out: SMYD3 Biochem IC50*
Sequence (Q9H7B4 whole entry): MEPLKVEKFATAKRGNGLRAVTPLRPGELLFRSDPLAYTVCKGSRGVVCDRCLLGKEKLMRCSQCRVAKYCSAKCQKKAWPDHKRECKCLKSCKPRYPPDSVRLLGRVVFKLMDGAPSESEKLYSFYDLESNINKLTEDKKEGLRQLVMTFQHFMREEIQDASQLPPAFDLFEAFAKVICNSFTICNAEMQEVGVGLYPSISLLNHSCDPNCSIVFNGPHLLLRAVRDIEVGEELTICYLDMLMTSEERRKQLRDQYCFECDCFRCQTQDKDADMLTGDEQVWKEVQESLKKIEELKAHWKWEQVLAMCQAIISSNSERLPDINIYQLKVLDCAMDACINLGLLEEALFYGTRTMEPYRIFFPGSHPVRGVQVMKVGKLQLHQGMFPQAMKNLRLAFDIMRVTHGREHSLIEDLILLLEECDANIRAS
Quick note: pIC50 values are minus log10 of concentrations in mol/L.

Solved cases (2 shown):
Looking for the measured pIC50 of O=C(N[C@H]1C[C@H]2CC[C@@H](C1)N2S(=O)(=O)[C@H]1CC[C@H](NCCN2CCOCC2)CC1)c1cc(C2CC2)on1 , can you help?
8.13

Suppose we examine the molecule CN1CC2CC1CN2S(=O)(=O)N1[C@@H]2CC[C@H]1C[C@@H](NC(=O)c1cc(C3CC3)on1)C2 ; what pIC50 value has been reported?
8.09

Continue with the next molecule.
Entry C[C@H]1C[C@@H](NC(=O)c2cc(C3CC3)on2)CCN1S(=O)(=O)C[C@H]1CCCNC1 : reported pIC50 = ?
8.16

* * *

# maps each entry to its IC50
target: SMYD3 (Homo sapiens (Human)); experiment: SMYD3 cell assay (Trimethyl-MEKK2 In-Cell Western in 293T/17 cells); format: cell-based; conditions: 293T/17 cells; read-out: SMYD3 Cell IC50 (μM)*

Known IC50 results, listed for orientation:
I would be grateful if you could share the reported IC50 for C[C@H]1C[C@H](NC(=O)c2cc(C3CC3)on2)CCN1C(=O)CC(CN)Cc1ccccc1 (stereo partly shown) [compound 271] .
> 40 µM

What does the record list as IC50 for O=C(Nc1ccc(S(=O)(=O)N2[C@@H]3CC[C@H]2C[C@@H](NC(=O)c2cc(C4CC4)on2)C3)cc1)c1ccncc1 [compound 431] ?
> 10 µM

What value of IC50 has been reported for the following compound? NCCCC(=O)N1CC[C@@H](NC(=O)c2cc(C3CC3)on2)C[C@H]1Cc1ccccc1 [compound 333]
> 40 µM

Pending compound:
So what does the record say about IC50 for COCCNc1ccc(S(=O)(=O)N2CC[C@@H](NC(=O)c3cc(C4CC4)on3)C[C@H]2C)cn1 [compound 457] ?
> 10 µM

* * *

molecular target: SMYD3 (Homo sapiens (Human)); test: SMYD3 cell assay (Trimethyl-MEKK2 In-Cell Western in 293T/17 cells); type: cell-based; details: read-out: SMYD3 Cell IC50*
measuredQuantity: pIC50
Units for pIC50: none; it is -log10 of a concentration expressed in mol/L.

Which pIC50 is listed for CCNC1CCN(S(=O)(=O)N2CC[C@H](NC(=O)c3cc(C4CC4)on3)C[C@@H]2C)CC1 [compound 829] ?
7.15

GET /values?readout=pIC50&item= O=C(N[C@H]1C[C@H]2CC[C@@H](C1)N2S(=O)(=O)N1CC2CCC(C1)N2CCO)c1cc(C2CC2)on1 [compound 881]
7.16

***
Quick one: pIC50 for C[C@H](NC1CCN(S(=O)(=O)N2[C@@H]3CC[C@H]2C[C@@H](NC(=O)c2cc(C4CC4)on2)C3)CC1)c1ccccc1 [compound 927] ?
6.39

* * *

molecular target: SMYD3 (Homo sapiens (Human), UniProt Q9H7B4); assay: SMYD3 biochemical assay (SPA, 3H-SAM methylation of MEKK2 protein substrate); settings: average of n = 1 to n = 50; read-out: SMYD3 Biochem IC50
Each entry below lists one item and its recorded pIC50 value.
pIC50 is a log-scale quantity: -log10 of the concentration expressed in molar.

Please report the recorded pIC50 for CN1CCN(S(=O)(=O)N2[C@@H]3CC[C@H]2C[C@@H](NC(=O)c2cc(C4CC4)on2)C3)CC1CO (stereo partly drawn) [compound 684] .
6.91

For the compound shown here, CN(C1CCN(Cc2ccccc2)CC1)S(=O)(=O)N1[C@@H]2CC[C@H]1C[C@@H](NC(=O)c1cc(C3CC3)on1)C2 [compound 659] , give the reported pIC50.
7.18

---
Could you share which pIC50 value was measured for C[C@H]1C[C@@H](NC(=O)c2cc(C3CC3)on2)CCN1S(=O)(=O)N1CCN(C)C(C)(C)C1 [compound 680] ?
6.93

Give the measured pIC50 of CN1CCC(CS(=O)(=O)N2CC[C@H](NC(=O)c3cc(C4CC4)on3)C[C@@H]2Cc2ccccc2)CC1 [compound 682] .
6.92

GET /values?readout=pIC50&item= C[C@H]1CN(S(=O)(=O)N(C)C2CCN(C)CC2)CC[C@H]1NC(=O)c1cc(C2CC2)on1 [compound 668]
7.00

Entry under review: COCCN(C)CCCS(=O)(=O)N1[C@@H]2CC[C@H]1C[C@@H](NC(=O)c1cc(C3CC3)on1)C2 [compound 665] . Reported pIC50?
7.06

* * *

molecular target: SMYD3 (Homo sapiens (Human)); experiment: SMYD3 cell assay (Trimethyl-MEKK2 In-Cell Western in 293T/17 cells); format: cell-based; settings: 293T/17 cells; read-out: SMYD3 Cell IC50 (μM)*
IC50 by entry:
Reply numerically in µM, unit not repeated.

Provide value of IC50 for this record tested with SMYD3 (Homo sapiens (Human)): C[C@H]1C[C@@H](NC(=O)c2cc(C3CC3)on2)CCN1S(=O)(=O)Cc1ccccc1 [compound 274]
1.42

Item C[C@H]1C[C@@H](NC(=O)c2cc(C3CC3)on2)CCN1C(=O)CC(C)(C)CN [compound 337] with SMYD3 (Homo sapiens (Human)) - IC50?
13

Request - read-out IC50 | tested on SMYD3 (Homo sapiens (Human)) | molecule C[C@@H]1C[C@H](NC(=O)c2cc(C3CC3)on2)CCN1S(=O)(=O)Cc1cccnc1 [compound 329]
20

Then this molecule:
# returns recorded IC50 (system: SMYD3 (Homo sapiens (Human))) for CCOC(=O)C1CN(S(=O)(=O)CCCN)CCC1NC(=O)c1cc(C2CC2)on1 (stereo not shown) [compound 331]
2.31

* * *

log10 of IC50 overview
target: SMYD3 (Homo sapiens (Human), UniProt Q9H7B4); assay: SMYD3 biochemical assay (SPA, 3H-SAM methylation of MEKK2 protein substrate); conditions: average of n = 1 to n = 50; read-out: SMYD3 Biochem IC50
// do not treat as linear: log10 of IC50, unit nM

These recorded examples may help you get a feel for the data.
Provide value of log10 of IC50 for this record tested with SMYD3 (Homo sapiens (Human), UniProt Q9H7B4): C[C@@H]1CN(C(=O)c2ccc(C(C)(C)N)cc2)[C@H](C)C[C@@H]1NC(=O)c1cc(C2CC2)on1
1.80

Find the measured log10 of IC50: item CC1CCCN1CCS(=O)(=O)N1[C@@H]2CC[C@H]1C[C@@H](NC(=O)c1cc(C3CC3)on1)C2 (stereo partly shown) , target or system SMYD3 (Homo sapiens (Human), UniProt Q9H7B4).
2.12

// map C[C@H]1CN(S(=O)(=O)N2CCNCC2)[C@@H](C)C[C@H]1NC(=O)c1cc(C2CC2)on1 to recorded log10 of IC50 (system: SMYD3 (Homo sapiens (Human), UniProt Q9H7B4))
1.52

// map CC1CN(S(=O)(=O)N2[C@@H]3CC[C@H]2C[C@@H](NC(=O)c2cc(C4CC4)on2)C3)CC(C)N1C (stereo partly shown) to recorded log10 of IC50 (system: SMYD3 (Homo sapiens (Human), UniProt Q9H7B4))
2.33

Can you look up log10 of IC50 on SMYD3 (Homo sapiens (Human), UniProt Q9H7B4) for C[C@@H]1C[C@H](NC(=O)c2cc(C3CC3)on2)CCN1C(=O)c1ccc([C@@H](C)N)cc1 ?
1.94

Further cases:
Query for SMYD3 (Homo sapiens (Human), UniProt Q9H7B4): what log10 of IC50 does the record show for O=C(N[C@H]1C[C@H]2CC[C@@H](C1)N2S(=O)(=O)N1CCNC(c2ccccc2)C1)c1cc(C2CC2)on1 (stereo partly shown) ?
2.51
